read-out: Monocyte Chemoattractant Protein-1 (MCP1), CCL2 (gene 6347); assay: BSK_LPS_MCP1: BioMAP Diversity Plus: LPS Assay for Monocyte Chemoattractant Protein-1 (MCP1) Biomarker Activity (AID 2283081); details: primary human HUVEC with PBMC; actives raise or lower the signal
Active and inactive are the calls of the source. The calls were made as follows: active = hit-call score of the fitted dose curve at least 0.9, where 1 is the maximum; inactive = score below 0.9.
Hello, when you answer, please use one of the following outcomes: YES (active), NO (inactive)

Hello, I am checking results. What call was entered for `C#C[C@]1(O)CC[C@H]2[C@@H]3CCc4cc(OC)ccc4[C@H]3CC[C@@]21C` ?
YES

Hello, I am checking results. What call was entered for `C=C(C)C(=O)OCCC(F)(F)C(F)(F)C(F)(F)C(F)(F)C(F)(C(F)(F)F)C(F)(F)F` ?
NO

Hello, I am checking results. What call was entered for `O[Si](c1ccccc1)(c1ccccc1)c1ccccc1` ?
YES

Hello, I am checking results. What call was entered for `C=CC(=O)OCC(F)(F)C(F)(F)C(F)(F)C(F)(F)C(F)(F)C(F)(F)C(F)(F)F` ?
NO

Hello, I am checking results. What call was entered for `Cc1ccc(S(=O)(=O)OCC(F)(F)C(F)(F)C(F)(F)C(F)(F)C(F)(F)C(F)F)cc1` ?
NO

Hello, I am checking results. What call was entered for `CS(C)(=O)=O` ?
NO

Hello, I am checking results. What call was entered for FC1CC(F)(F)C(F)(F)C1(F)F (stereo not given) ?
NO

Hello, I am checking results. What call was entered for `NC(=O)C(F)(F)C(F)(F)C(F)(F)C(F)(F)F` ?
NO

Hello, I am checking results. What call was entered for `CCO[Si](CCC(F)(F)C(F)(F)C(F)(F)C(F)(F)C(F)(F)C(F)(F)F)(OCC)OCC` ?
NO

Hello, I am checking results. What call was entered for `CCCCCCCCC(F)(F)C(F)(F)C(F)(F)C(F)(F)C(F)(F)C(F)(F)F` ?
NO

---

Experiment: ATG_NF_kB_CIS: Attagene CIS-FACTORIAL HepG2 Assay for human Nuclear Factor Kappa B (NF-kB) (AID 2282991)
Conditions: HepG2 Attagene cis-factorial NF-kB reporter mRNA; actives raise or lower the signal
Experimental: ATG_CIS is a cell-based, multiplexed-readout assay that uses HepG2, a human liver cell line, with measurements taken at 24 hours after chemical dosing in a 24-well plate.ATG_NF_kB_CIS is one of 52 assay component(s) measured or calculated from the ATG_CIS assay. […] This assay endpoint, ATG_NF_kB_CIS, was analyzed with bidirectional fitting relative to DMSO as the negative control and baseline of activity. […]
Active and inactive are the calls of the source. Rule for the calls: active = hit-call score of the fitted dose curve at least 0.9, where 1 is the maximum; inactive = score below 0.9.
Hello, when you answer, please use one of the following outcomes: True for active, False for inactive

Hello, I am checking results. What call was entered for `O=C(O)C(F)(F)C(F)(F)C(F)(F)C(F)(F)C(F)(F)C(F)(F)C(F)(F)C(F)(F)C(F)(F)C(F)(F)C(F)(F)C(F)(F)F` ?
False

Hello, I am checking results. What call was entered for `O=C(O)C(F)(F)C(F)(F)C(F)(F)C(F)(F)C(F)(F)C(F)(F)C(F)(F)C(F)(F)C(F)(F)C(F)(F)C(F)(F)C(F)(F)C(F)(F)F` ?
True

Hello, I am checking results. What call was entered for `C=CC(F)(F)C(F)(F)C(F)(F)C(F)(F)C(F)(F)C(F)(F)C(F)(F)C(F)(F)F` ?
False

Hello, I am checking results. What call was entered for `CCCCCCCCC(F)(F)C(F)(F)C(F)(F)C(F)(F)C(F)(F)C(F)(F)F` ?
False

Hello, I am checking results. What call was entered for `OCC(F)(F)C(F)(F)C(F)(F)C(F)(F)C(F)(F)C(F)(F)F` ?
False

Hello, I am checking results. What call was entered for `O=S(=O)(OCCOC(F)(F)F)C(F)(F)F` ?
False

Hello, I am checking results. What call was entered for `C=C(C)C(=O)OCCC(F)(F)C(F)(F)C(F)(F)C(F)(F)C(F)(C(F)(F)F)C(F)(F)F` ?
False

Hello, I am checking results. What call was entered for `CC(C)OC(=O)c1ccccc1C(=O)OC(C)C` ?
False

Hello, I am checking results. What call was entered for `O[Si](c1ccccc1)(c1ccccc1)c1ccccc1` ?
False

Hello, I am checking results. What call was entered for `OCC(F)(F)C(F)(F)C(F)(F)F` ?
False

Hello, I am checking results. What call was entered for `C=C(C)C(=O)OCC(F)(F)C(F)(F)C(F)(F)F` ?
False

Hello, I am checking results. What call was entered for `Cc1cccc(N(C)C)c1` ?
False

Hello, I am checking results. What call was entered for `CCCCCCS` ?
False

Hello, I am checking results. What call was entered for FC1CC(F)(F)C(F)(F)C1(F)F (stereo not drawn) ?
False

Hello, I am checking results. What call was entered for `FC(F)(Br)C(F)(F)C(F)(F)C(F)(F)C(F)(F)C(F)(F)Br` ?
False

Hello, I am checking results. What call was entered for `O=S(=O)(O)c1ccc2ccccc2c1` ?
False

Hello, I am checking results. What call was entered for O=C(O)C(F)(OC(F)(F)C(F)(OC(F)(F)C(F)(F)C(F)(F)F)C(F)(F)F)C(F)(F)F (stereo not drawn) ?
False

Hello, I am checking results. What call was entered for `CCCCCCCCCCCCCCCC[N+](C)(C)Cc1ccccc1` ?
False

Hello, I am checking results. What call was entered for FC(F)(F)C(F)(F)C(F)(F)C(F)(F)C(F)(F)C(F)(F)CC1CO1 (stereo not drawn) ?
False

Hello, I am checking results. What call was entered for `FC(F)(F)C(F)(F)C(F)(F)C(F)(F)C(F)(F)C(F)(F)C(F)(F)Br` ?
False

Hello, I am checking results. What call was entered for `Nc1ccc(S(=O)(=O)Nc2nccs2)cc1` ?
False

Hello, I am checking results. What call was entered for `O=C(O)C(F)(F)C(F)(F)C(F)(F)F` ?
False

Hello, I am checking results. What call was entered for `Nc1ccc([N+](=O)[O-])cc1O` ?
False

Hello, I am checking results. What call was entered for `FC(F)(F)C(F)(F)C(F)(F)CI` ?
False

Hello, I am checking results. What call was entered for `FC(F)(I)C(F)(F)C(F)(F)C(F)(F)I` ?
False

Hello, I am checking results. What call was entered for `FC(F)(F)C(F)(F)C(F)(F)C(F)(F)C(F)(F)C(F)(F)C(F)(F)C(F)(F)F` ?
False

Hello, I am checking results. What call was entered for `CC(C)c1ccccc1N` ?
False

Hello, I am checking results. What call was entered for `CO[Si](OC)(c1ccccc1)c1ccccc1` ?
False

Hello, I am checking results. What call was entered for `OC[C@@H](O)[C@@H](O)[C@H](O)[C@@H](O)CO` ?
False

Hello, I am checking results. What call was entered for `O=C(O)C(F)(F)C(F)(F)OC(F)(F)F` ?
False

Hello, I am checking results. What call was entered for `Nc1ccc(Oc2cccc(Oc3ccc(N)cc3)c2)cc1` ?
False

Hello, I am checking results. What call was entered for `CCCCOc1ccc(N)cc1` ?
False

Hello, I am checking results. What call was entered for `O=P(O)(O)OCCC(F)(F)C(F)(F)C(F)(F)C(F)(F)C(F)(F)C(F)(F)F` ?
False
